# Tested on: CYP3A4/5
# measurementDescription: Clinical study: effect of boceprevir on the pharmacokinetic profile of midazolam in healthy adult subjects
# conditionsUsed: both, human, in vivo, 4 mg, MDZ AUC (0-24 hr) LS Mean, MDZ Alone (Day 13)
resultType: AUC(0-t) (ng·h/mL)

compound="Cc1ncc2n1-c1ccc(Cl)cc1C(c1ccccc1F)=NC2 [MDZ, midazolam]" unittag=ng·h/mL experimentalresult=43.8

---

# targetOrTestSystem: CYP2C9 (Homo sapiens, UniProt P11712)
# Construct: Pooled human liver microsomes (from sixteen individuals) were used as the source of enzymes; tissue XenoTech, LLC; host or cells: human liver microsomes, pool of sixteen donors
# Sequence (P11712 whole entry): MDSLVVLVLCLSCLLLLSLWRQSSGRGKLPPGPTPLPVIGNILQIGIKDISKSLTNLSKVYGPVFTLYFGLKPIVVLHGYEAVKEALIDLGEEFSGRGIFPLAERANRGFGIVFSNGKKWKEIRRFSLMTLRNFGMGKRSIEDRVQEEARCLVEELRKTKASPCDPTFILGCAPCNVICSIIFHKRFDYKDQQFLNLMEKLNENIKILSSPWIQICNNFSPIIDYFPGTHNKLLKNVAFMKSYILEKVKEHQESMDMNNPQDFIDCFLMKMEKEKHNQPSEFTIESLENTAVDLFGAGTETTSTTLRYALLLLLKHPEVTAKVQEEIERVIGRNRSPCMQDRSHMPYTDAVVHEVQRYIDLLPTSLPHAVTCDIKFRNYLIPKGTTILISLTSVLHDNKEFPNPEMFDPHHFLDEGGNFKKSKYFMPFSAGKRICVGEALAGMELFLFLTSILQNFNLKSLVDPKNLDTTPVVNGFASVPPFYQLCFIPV
# measurementDescription: CYP2C9 inhibition, diclofenac 4′-hydroxylation in human liver microsomes
# Type: in vitro ADME
# conditionsUsed: human, pooled human liver microsomes, pH 7.4, probe diclofenac (4′-hydroxylation); direct inhibition, zero-minute pre-incubation; read-out: Max. Inhib. at 100 μM
resultType: inhibition at 5 min, 100 µM (%)

molecule="CC(C)(C)NC(=O)NC(C(=O)N1CC2C([C@H]1C(=O)NC(CC1CCC1)C(=O)C(N)=O)C2(C)C)C(C)(C)C (stereo partly shown)" experimentalresult=3.6

These entries and their values trace back to patent US20140162942A1.
